Reported IC50 values for the following compounds.
system: Ramos; experiment: Antiproliferative activity against human Ramos cells; assay type: functional, cell-based; details: Homo sapiens, Ramos
Report the value in µM with no unit label.

Worked examples follow.
                                   compound  display_unit  obs_value
0  CC1(C(=O)N2CC[C@H](n3cc(-c4ccc5c(c4)OCO5)c4c(N)ncnc43)C2)COC1            µM         39
1  COCCN1CC[C@H](n2cc(-c3ccc4c(c3)OCO4)c3c(N)ncnc32)C1            µM       21.2
2  Nc1ncnc2c1c(-c1ccc3c(c1)OCO3)cn2C[C@@H]1CCCN(C[C@@H]2CO2)C1            µM       13.1
3  Nc1ncnc2c1c(-c1ccc3c(c1)OCO3)cn2[C@H]1CCN(Cc2cc(F)cc(F)c2)C1            µM        6.6

Attention now turns to another entry.
IN: Output measured IC50 for this item: CCOC(=O)C(C)N1CC[C@H](n2cc(-c3ccc4c(c3)OCO4)c3c(N)ncnc32)C1 (stereo not given in full)
OUT: 9.92

----------
biological target: UniProt:P12931; test: Inhibition of human recombinant SRC using Ulight-Poly GAT[EAY(1:1:1) as substrate measured after 10 mins in the presence of ATP by LANCE method
Sequence (P12931 2-536 limits assumed): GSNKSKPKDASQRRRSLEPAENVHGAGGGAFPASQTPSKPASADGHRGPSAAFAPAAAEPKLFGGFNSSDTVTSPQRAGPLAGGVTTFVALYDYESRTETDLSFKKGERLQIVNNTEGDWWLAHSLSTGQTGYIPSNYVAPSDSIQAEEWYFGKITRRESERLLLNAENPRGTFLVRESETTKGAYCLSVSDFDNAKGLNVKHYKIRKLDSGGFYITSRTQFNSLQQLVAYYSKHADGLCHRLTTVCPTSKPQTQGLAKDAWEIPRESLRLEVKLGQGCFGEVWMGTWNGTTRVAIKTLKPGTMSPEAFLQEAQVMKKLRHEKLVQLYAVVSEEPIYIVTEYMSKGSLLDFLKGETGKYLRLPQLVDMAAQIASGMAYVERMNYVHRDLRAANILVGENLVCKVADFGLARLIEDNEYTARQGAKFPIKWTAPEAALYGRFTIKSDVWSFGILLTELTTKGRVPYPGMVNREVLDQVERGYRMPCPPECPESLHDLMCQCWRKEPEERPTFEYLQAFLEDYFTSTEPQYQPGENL
Assay Readout: pIC50
pIC50 here: minus log base 10 of the concentration, concentration in moles per litre.

IN: Output measured pIC50 for this item: "Nc1ncnc2c1c(-c1ccc(Oc3ccccc3)cc1)cn2C[C@H]1CCCN1C[C@@H]1CO1"
OUT: 6.91

----------
Reported inhibition values for the following compounds.
biological target: Tyrosine-protein kinase BTK (Homo sapiens); experiment: Inhibition of BTK (unknown origin) at 1 uM in the presence of ATP by caliper mobility shift assay relative to control
Sequence (Q06187 whole entry): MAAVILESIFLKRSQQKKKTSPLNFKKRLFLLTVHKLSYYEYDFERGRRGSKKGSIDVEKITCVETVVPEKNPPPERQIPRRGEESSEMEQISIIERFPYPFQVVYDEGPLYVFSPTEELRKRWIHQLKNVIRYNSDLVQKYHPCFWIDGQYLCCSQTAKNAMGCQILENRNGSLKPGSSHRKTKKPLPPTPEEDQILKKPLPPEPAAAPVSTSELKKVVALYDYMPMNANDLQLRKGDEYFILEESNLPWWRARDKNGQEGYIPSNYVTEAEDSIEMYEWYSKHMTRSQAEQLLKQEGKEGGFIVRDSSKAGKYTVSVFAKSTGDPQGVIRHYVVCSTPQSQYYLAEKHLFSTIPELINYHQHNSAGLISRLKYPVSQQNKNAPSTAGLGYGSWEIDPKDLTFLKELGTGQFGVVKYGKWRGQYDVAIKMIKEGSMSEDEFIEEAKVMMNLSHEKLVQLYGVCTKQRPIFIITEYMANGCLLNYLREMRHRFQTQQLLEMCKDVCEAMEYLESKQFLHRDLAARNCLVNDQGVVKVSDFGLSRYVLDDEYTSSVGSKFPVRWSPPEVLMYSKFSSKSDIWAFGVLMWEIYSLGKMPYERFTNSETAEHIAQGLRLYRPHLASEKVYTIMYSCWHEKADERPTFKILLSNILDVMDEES
Report the value in % with no unit label.

Worked examples follow.
                            compound_smiles  assay_readout  obs_value
0  Nc1ncnc2c1c(-c1ccc3c(c1)OCO3)cn2[C@H]1CCN(C(=O)C2CC2)C1     inhibition         34
1  Nc1ncnc2c1c(-c1cc3ccccc3o1)cn2[C@H]1CCN(C[C@H]2CO2)C1     inhibition       62.9
2  Nc1ncnc2c1c(-c1ccc3c(c1)OCO3)cn2CC1CCN(C[C@@H]2CO2)CC1     inhibition       59.9
3  Nc1ncnc2c1c(-c1ccc3c(c1)OCO3)cn2[C@H]1CCN(C(=O)c2ccccn2)C1     inhibition       28.1
4  Nc1ncnc2c1c(-c1ccc(Oc3ccccc3)cc1)cn2[C@H]1CCN(C[C@H]2CO2)C1     inhibition       90.1

IN: Output measured inhibition for this item: "CC(C)(C)c1ccc(C(=O)Nc2cccc(-c3cn([C@H]4CCN(C[C@@H]5CO5)C4)c4ncnc(N)c34)c2)cc1"
OUT: 22.2

IN: Output measured inhibition for this item: "Nc1ncnc2c1c(-c1ccc(C(=O)Nc3ccc(Oc4ccccc4)cc3)cc1)cn2[C@H]1CCN(C[C@@H]2CO2)C1"
OUT: 36.9

IN: Output measured inhibition for this item: "Nc1ncnc2c1c(-c1ccc3c(c1)OCO3)cn2C[C@@H]1CCCN1C[C@@H]1CO1"
OUT: 47.6

IN: Output measured inhibition for this item: "CC(C)(C)c1ccc(COc2ccc(-c3cn([C@H]4CCN(C[C@@H]5CO5)C4)c4ncnc(N)c34)cc2)cc1"
OUT: 7.63

IN: Output measured inhibition for this item: "Nc1ncnc2c1c(-c1ccc(Oc3ccccc3)cc1)cn2C[C@H]1CCCN1C(CO)CO"
OUT: 54.7

IN: Output measured inhibition for this item: "COCCN1CC[C@H](n2cc(-c3ccc4c(c3)OCO4)c3c(N)ncnc32)C1"
OUT: 8.09

IN: Output measured inhibition for this item: "CN(C)C(=O)N1CC[C@H](n2cc(-c3ccc4c(c3)OCO4)c3c(N)ncnc32)C1"
OUT: 42.6

----------
test system: JeKo-1; experiment: Antiproliferative activity against human JeKo1 cells; assay type: functional, cell-based; details: Homo sapiens, JeKo-1
pIC50: −log10 of the molar value.
Answer label 0 if pIC50 is under 5, and label 1 if it is 5 or more.

Below, 10 molecules whose answers are already recorded.
                            compound_smiles  assigned_category
0  COC(CN1CC[C@H](n2cc(-c3ccc4c(c3)OCO4)c3c(N)ncnc32)C1)OC            label 1
1  CC1(CN2CC[C@H](n3cc(-c4ccc5c(c4)OCO5)c4c(N)ncnc43)C2)COC1            label 0
2  NC(=O)CN1CC[C@H](n2cc(-c3ccc4c(c3)OCO4)c3c(N)ncnc32)C1            label 1
3  Nc1ncnc2c1c(-c1ccc3c(c1)OCO3)cn2C1CCN(C2COC2)CC1            label 0
4  N#CCCN1CC[C@H](n2cc(-c3ccc4c(c3)OCO4)c3c(N)ncnc32)C1            label 1
5  CC(C)(C)c1ccc(C(=O)Nc2ccc(-c3cn([C@H]4CCN(C[C@@H]5CO5)C4)c4ncnc(N)c34)cc2)cc1            label 1
6  Nc1ncnc2c1c(-c1cccc(-n3ncc4ccccc4c3=O)c1)cn2[C@H]1CCN(C[C@@H]2CO2)C1            label 0
7  Nc1ncnc2c1c(-c1ccc3c(c1)OCO3)cn2[C@H]1CCN(C[C@@H]2CO2)C1            label 1
8  Nc1ncnc2c1c(-c1ccc3c(c1)OCO3)cn2[C@H]1CCN(Cc2cc(F)cc(F)c2)C1            label 1
9  CC(C)(C)c1ccc(CN2CC[C@H](n3cc(-c4ccc5c(c4)OCO5)c4c(N)ncnc43)C2)cc1            label 1

IN: Does the molecule "Nc1ncnc2c1c(-c1ccc(NC(=O)c3ccccc3)cc1)cn2[C@H]1CCN(C[C@@H]2CO2)C1" have recorded pIC50 that is 5 or more?
OUT: label 1

IN: Does the molecule "CC(C)(C)c1ccc(C(=O)Nc2cccc(-c3cn([C@H]4CCN(C[C@@H]5CO5)C4)c4ncnc(N)c34)c2)cc1" have recorded pIC50 that is 5 or more?
OUT: label 1

----------
system: JeKo-1; assay: Antiproliferative activity against human JeKo1 cells; format: functional, cell-based; conditions: Homo sapiens, JeKo-1
pIC50: −log10 of the molar value.
Answer no if pIC50 is under 5, and yes if it is 5 or more.

>>> df
                            compound_smiles  assigned_category
0  CC(C)(C)c1ccc(Oc2ccc(-c3cn([C@H]4CCN(C[C@@H]5CO5)C4)c4ncnc(N)c34)cc2)cc1                 no

IN: Does the compound "Nc1ncnc2c1c(-c1ccc(Oc3ccccc3)cc1)cn2[C@H]1CCN(C[C@H]2CO2)C1" have recorded pIC50 that is 5 or more?
OUT: yes

IN: Does the compound "CN(C)CC(=O)N1CC[C@H](n2cc(-c3ccc4c(c3)OCO4)c3c(N)ncnc32)C1" have recorded pIC50 that is 5 or more?
OUT: no

IN: Does the compound "Nc1ncnc2c1c(-c1ccc3c(c1)OCO3)cn2[C@H]1CCN(CCCO)C1" have recorded pIC50 that is 5 or more?
OUT: yes

IN: Does the compound "Nc1ncnc2c1c(-c1ccc3c(c1)OCO3)cn2[C@H]1CCN(C(=O)c2ccccc2)C1" have recorded pIC50 that is 5 or more?
OUT: no

IN: Does the compound "Nc1ncnc2c1c(-c1ccc3c(c1)OCO3)cn2[C@H]1CCN(C[C@H]2CO2)C1" have recorded pIC50 that is 5 or more?
OUT: yes

IN: Does the compound "Nc1ncnc2c1c(-c1ccc3c(c1)OCO3)cn2C[C@H]1CCCN1C[C@@H]1CO1" have recorded pIC50 that is 5 or more?
OUT: yes

IN: Does the compound "Nc1ncnc2c1c(-c1ccc3c(c1)OCO3)cn2[C@H]1CCN(C2COC2)C1" have recorded pIC50 that is 5 or more?
OUT: no

----------
molecular target: Tyrosine-protein kinase JAK3 (Homo sapiens, UniProt P52333); experiment: Inhibition of human recombinant JAK3 using Ulight-CAGAGAIETDKEYYTVKD measured after 60 mins in the presence of ATP by LANCE method
Sequence (P52333 whole entry): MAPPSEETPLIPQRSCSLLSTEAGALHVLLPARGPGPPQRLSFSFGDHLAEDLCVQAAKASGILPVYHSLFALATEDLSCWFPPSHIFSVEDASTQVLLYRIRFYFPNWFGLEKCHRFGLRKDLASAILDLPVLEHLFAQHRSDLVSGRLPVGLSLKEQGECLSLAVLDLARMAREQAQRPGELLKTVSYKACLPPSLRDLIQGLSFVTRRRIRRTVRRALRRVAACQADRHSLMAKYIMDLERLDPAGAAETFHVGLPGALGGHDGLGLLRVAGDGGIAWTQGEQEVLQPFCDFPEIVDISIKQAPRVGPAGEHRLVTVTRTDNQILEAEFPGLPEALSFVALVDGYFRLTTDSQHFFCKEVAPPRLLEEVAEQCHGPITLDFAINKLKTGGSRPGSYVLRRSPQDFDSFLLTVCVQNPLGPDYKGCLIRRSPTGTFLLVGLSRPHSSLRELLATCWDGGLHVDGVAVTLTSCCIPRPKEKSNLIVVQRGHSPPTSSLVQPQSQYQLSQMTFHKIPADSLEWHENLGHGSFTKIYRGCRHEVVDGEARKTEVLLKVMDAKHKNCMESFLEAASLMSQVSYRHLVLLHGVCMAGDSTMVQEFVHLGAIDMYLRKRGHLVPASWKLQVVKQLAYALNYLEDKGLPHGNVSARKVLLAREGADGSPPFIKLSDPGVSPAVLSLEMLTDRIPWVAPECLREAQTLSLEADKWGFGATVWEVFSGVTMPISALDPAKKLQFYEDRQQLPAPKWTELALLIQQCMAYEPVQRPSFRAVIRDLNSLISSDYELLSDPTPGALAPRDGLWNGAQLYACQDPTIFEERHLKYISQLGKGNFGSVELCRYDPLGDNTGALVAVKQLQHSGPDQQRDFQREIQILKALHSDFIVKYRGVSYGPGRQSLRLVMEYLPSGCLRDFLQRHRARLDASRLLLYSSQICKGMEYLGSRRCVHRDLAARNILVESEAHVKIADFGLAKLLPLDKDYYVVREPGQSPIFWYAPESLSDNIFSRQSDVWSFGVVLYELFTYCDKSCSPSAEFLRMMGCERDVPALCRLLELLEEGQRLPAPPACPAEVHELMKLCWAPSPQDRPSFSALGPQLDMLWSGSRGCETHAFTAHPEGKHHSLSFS
pIC50: −log10 of the molar value.
Assay Readout: pIC50

IN: Output measured pIC50 for this item: "Nc1ncnc2c1c(-c1ccc(Oc3ccccc3)cc1)cn2C[C@H]1CCCN1C[C@@H]1CO1"
OUT: < 6.00

----------
target: UniProtKB P09769; assay: Inhibition of human recombinant FGR using Ulight-TK peptide as substrate measured after 60 mins in the presence of ATP by LANCE method
Sequence (P09769 whole entry): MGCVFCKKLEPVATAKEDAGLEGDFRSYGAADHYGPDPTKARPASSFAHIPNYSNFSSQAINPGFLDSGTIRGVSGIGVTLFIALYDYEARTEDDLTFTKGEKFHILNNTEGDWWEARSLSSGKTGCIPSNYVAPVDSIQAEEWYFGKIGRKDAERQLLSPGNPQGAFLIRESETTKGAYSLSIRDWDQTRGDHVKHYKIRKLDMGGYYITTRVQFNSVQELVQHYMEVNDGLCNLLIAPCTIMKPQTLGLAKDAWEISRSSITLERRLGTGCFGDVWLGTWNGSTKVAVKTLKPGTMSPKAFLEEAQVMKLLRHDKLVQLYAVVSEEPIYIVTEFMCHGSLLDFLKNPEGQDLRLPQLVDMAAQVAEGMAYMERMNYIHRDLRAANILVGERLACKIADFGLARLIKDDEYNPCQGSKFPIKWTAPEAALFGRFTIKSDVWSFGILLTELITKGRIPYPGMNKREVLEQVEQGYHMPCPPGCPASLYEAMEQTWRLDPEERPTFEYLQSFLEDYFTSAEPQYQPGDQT
Assay Readout: pIC50
pIC50 here: minus log base 10 of the concentration, concentration in moles per litre.

IN: Output measured pIC50 for this item: "Nc1ncnc2c1c(-c1ccc(Oc3ccccc3)cc1)cn2C[C@H]1CCCN1C[C@@H]1CO1"
OUT: 7.55
